B1: glmS ribozyme (parent)
chain: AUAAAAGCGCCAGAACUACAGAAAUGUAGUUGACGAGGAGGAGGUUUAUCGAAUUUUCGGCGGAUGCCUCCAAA

Variants of: B1
Experiment: self-cleavage kobs at 160 uM GlcN6P; higher = faster cleavage; RNA array
Details: with glucosamine-6-phosphate
Fewer inactive variants are shown than the library holds.
The following variants are listed with their measured self-cleavage kobs at 160 uM GlcN6P values.

1) G7U U49A :: < 1e-05 s⁻¹
2) G7U A48U :: < 1e-05 s⁻¹
3) C11G G13U U45C :: < 1e-05 s⁻¹
4) C34U U47A :: < 1e-05 s⁻¹
5) C8G C70U :: < 1e-05 s⁻¹
6) A6C C8A C67A :: < 1e-05 s⁻¹

Prompt line: Query (variant): C8G G13A U54A G62A ; field requested: self-cleavage kobs at 160 uM GlcN6P
Response line: < 1e-05 s⁻¹
